tested.on: Aspartate--tRNA(Asp/Asn) ligase (Mycobacterium tuberculosis (strain ATCC 25618 / H37Rv)) (UniProt P9WFW3)
Sequence (P9WFW3 whole entry): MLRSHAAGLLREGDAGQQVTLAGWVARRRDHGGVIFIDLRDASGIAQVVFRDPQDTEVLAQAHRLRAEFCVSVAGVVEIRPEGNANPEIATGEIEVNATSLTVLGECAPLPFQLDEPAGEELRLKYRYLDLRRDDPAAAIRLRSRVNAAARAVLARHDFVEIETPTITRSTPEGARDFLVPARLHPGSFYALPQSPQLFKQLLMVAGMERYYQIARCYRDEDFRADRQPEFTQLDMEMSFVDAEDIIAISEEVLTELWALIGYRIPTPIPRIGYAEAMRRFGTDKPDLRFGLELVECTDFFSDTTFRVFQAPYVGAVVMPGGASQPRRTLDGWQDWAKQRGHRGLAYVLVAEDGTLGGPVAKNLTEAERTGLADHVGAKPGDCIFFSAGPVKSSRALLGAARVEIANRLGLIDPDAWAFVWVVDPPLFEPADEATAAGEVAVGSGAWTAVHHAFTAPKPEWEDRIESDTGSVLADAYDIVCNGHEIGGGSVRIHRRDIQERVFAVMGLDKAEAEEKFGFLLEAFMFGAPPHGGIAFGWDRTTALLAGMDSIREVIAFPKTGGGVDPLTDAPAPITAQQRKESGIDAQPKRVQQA
method.description: Assay for Asp RNA synthetase-1 from Mycobacterium tuberculosis
Assay type: functional
Set-up: scale not given: direction of the effect not stated beside the values
test.settings: 30 µM
This section presents molecules with their documented Percent Effect values.
State the answer as a number, implicitly in %.

molecule: CC(C)=CCN1CCC(c2nccn2Cc2cscn2)CC1
Percent Effect [%]: -3.28
--
molecule: O=C(Nc1cccc(CN2CCOC2=O)c1)N1CCSCC1
Percent Effect [%]: -4.15
--
molecule: CCNC(=O)[C@@H]1C[C@H](NC(=O)Cc2ccsc2)CN1Cc1ccc(C)o1
Percent Effect [%]: -0.518
--
molecule: COc1cc(C)nc(N2CCN(C(=O)c3ccc(Cl)o3)CC2)n1
Percent Effect [%]: 0.508
--
molecule: CN(Cc1ccncc1)CC(c1cccs1)N1CCOCC1 (stereo not drawn)
Percent Effect [%]: -5.01

Given item Cc1nc2cc(C3CCN(Cc4cccc(F)c4F)C3)nn2c(O)c1C (stereo not drawn) , the value recorded as its Percent Effect is 2.37

Given item CC1=N[C@@]2(CC[C@@H]3CN(CC(=O)N(C)C)C[C@@H]32)C(=O)N1CC(C)C , the value recorded as its Percent Effect is -0.203

Given item CCN1CCN(C(=O)CCc2c(C)noc2Cl)CC1 , the value recorded as its Percent Effect is 0.983

Given item CNC1CCCN(Cc2noc(C3CC3)n2)C1 (stereo not drawn) , the value recorded as its Percent Effect is -0.881

Given item Cc1nn(CC(C)C)c(N(C)C)c1CNCc1cccc2c1OCO2 , the value recorded as its Percent Effect is 1.9

Given item CC(=O)Nc1nc(CN2CCn3c(nnc3C3CC3)C2)cs1 , the value recorded as its Percent Effect is -7.9

Given item CSc1ccc(C(CNC(=O)C2CC2)N2CCc3sccc3C2)cc1 (stereo not drawn) , the value recorded as its Percent Effect is -0.15

Given item CN(Cc1cnn(C)c1)C(=O)c1ccc(=O)n(C)n1 , the value recorded as its Percent Effect is -3.08

Given item Cc1cc(C)c(CNC(=O)NCC(c2ccccc2)N(C)C)c(=O)[nH]1 (stereo not drawn) , the value recorded as its Percent Effect is 4.47

Given item Cc1nccn1CCCC(=O)N1CCC(Nc2cccnn2)CC1 , the value recorded as its Percent Effect is -0.211

Given item CCOc1ncccc1NC(=O)NCC(O)c1ccccc1OC (stereo not drawn) , the value recorded as its Percent Effect is -0.742

###

tested.on: Shiga toxin 2 (Escherichia coli O157:H7) (UniProt P09385+P09386)
method.description: E. coli 0.157:H7 Shiga Toxin SOP - stx2 screening assay
Assay type: functional
Set-up: scale not given: direction of the effect not stated beside the values
test.settings: 30 µM
measurement.name: Percent Effect (%)
State the answer as a number, implicitly in %.

molecule: Cn1cnnc1C1CCCN(C(=O)NCCOc2ccccc2)C1 (stereo unspecified)
quantitative.result: -30.2
--
molecule: CCN1CCC(NC(=O)CN2CCc3c(ncn3C)C2)CC1
quantitative.result: 19.9
--
molecule: Cc1cc(C[C@@H]2COC[C@@H]2NC(=O)CN2CCCC2)on1
quantitative.result: -10.1
--
molecule: CC(NC(=O)NCCCN1CCCCCC1)c1nncn1C (stereo unspecified)
quantitative.result: -17.6
--
molecule: CC(C)c1cc(NCC(O)c2ccc(F)cc2)n2nccc2n1 (stereo unspecified)
quantitative.result: 7.39

Read the next record carefully.
Observed Percent Effect, Shiga toxin 2 (Escherichia coli O157:H7) (UniProt P09385+P09386), CC(C)n1ccnc1C1CCN(C(=O)c2ccccc2)CC1 : 12.4
